- Study target: human growth hormone secretagogue receptor (hGHS-R1a) (Homo sapiens)
- Construct: purchased PerkinElmer BioSignal #RBHGHSM, lot#1887; host or cells: HEK-293, stably transfected (membranes)
- Sequence (Q92847 whole entry): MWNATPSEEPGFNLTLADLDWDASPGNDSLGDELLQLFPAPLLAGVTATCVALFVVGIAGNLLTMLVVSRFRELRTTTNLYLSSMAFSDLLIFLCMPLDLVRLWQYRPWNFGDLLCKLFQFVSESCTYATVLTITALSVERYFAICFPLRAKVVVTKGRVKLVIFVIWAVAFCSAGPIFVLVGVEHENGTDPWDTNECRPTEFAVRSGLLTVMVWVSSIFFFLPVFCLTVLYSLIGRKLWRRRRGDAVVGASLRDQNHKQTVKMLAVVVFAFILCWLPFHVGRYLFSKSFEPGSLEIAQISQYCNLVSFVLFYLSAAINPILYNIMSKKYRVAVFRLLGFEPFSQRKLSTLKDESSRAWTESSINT
- Protocol description: Competitive radioligand binding assay (ghrelin receptor), [125I]-ghrelin displacement on GHS-R/HEK 293 membranes
- Measurement setup: binding activity at the human ghrelin receptor, [125I]-ghrelin displacement; read-out: Ki
Measured metric: Ki

// worked examples, Ki included
> print(dat)
                                   compound          result
1  C[C@@H]1C(=O)N[C@H](Cc2ccc(Br)cc2)C(=O)NCCCc2ccccc2OCCN[C@@H](C2CC2)C(=O)N1C    0.1 to 10 nM
2  C[C@@H]1C(=O)N[C@H](Cc2ccc(F)cc2)C(=O)NCCCc2ccccc2OCCN[C@@H](CCCN)C(=O)N1C  100 to 1000 nM
3  CC1C(=O)NC(Cc2ccc(Cl)cc2Cl)C(=O)NCCCc2ccccc2OCCNC(C2CC2)C(=O)N1C (centres unmarked)    0.1 to 10 nM
4  CC1C(=O)NC(Cc2ccc(F)cc2)C(=O)NCCCc2ncccc2OCCNC(C2CC2)C(=O)N1C (single isomer, unassigned) [306a]    10 to 100 nM
5  CC1C(=O)NC(Cc2ccc(Cl)c(Cl)c2)C(=O)NCCCc2ccccc2OCCNC(C2CC2)C(=O)N1C (centres unmarked)    0.1 to 10 nM

Q. Give the measured Ki for CSCC[C@@H]1NCCOc2ccccc2CCCNC(=O)[C@@H](Cc2ccc(F)cc2)NC(=O)[C@@H](C)N(C)C1=O
A. 10 to 100 nM

Q. Give the measured Ki for C[C@@H]1C(=O)N[C@H](Cc2ccc(F)c(F)c2)C(=O)NCCCc2ccccc2OCCN[C@@H](C2CC2)C(=O)N1C
A. 10 to 100 nM

Q. Give the measured Ki for CCC(C)C1NCCOc2ccccc2C=CCNC(=O)C(COCc2ccccc2)NC(=O)C2(CCCC2)NC1=O (centres unmarked)
A. 100 to 1000 nM

Q. Give the measured Ki for C[C@@H]1C(=O)N[C@H](Cc2ccc(I)cc2)C(=O)NCCCc2ccccc2OCCN[C@@H](C2CC2)C(=O)N1C
A. 0.1 to 10 nM

Q. Give the measured Ki for C[C@@H]1C(=O)N[C@H](Cc2ccc(F)cc2)C(=O)NCCCc2ccccc2OCCN[C@@H](C2CC2)C(=O)N1C
A. 0.1 to 10 nM

Q. Give the measured Ki for CC1C(=O)NC(Cc2ccc(Cl)cc2)C(=O)NCCCc2ccccc2OCCNC(C2CC2)C(=O)N1C (centres unmarked)
A. 0.1 to 10 nM

====

- Study target: human ghrelin receptor (hGHS-R1a) (Homo sapiens)
- Protocol description: Aequorin functional assay (ghrelin receptor), CHO-K1 cells co-expressing Gα16 and aequorin
- Format: cell-based
- Measurement setup: functional (agonist) activity, standard method; TFA salts unless otherwise noted
pEC50: −log10 of the molar value.
pEC50 listing for selected compounds.

// worked examples, pEC50 included
> print(dat)
                                   compound        result
1  O=C1NC/C=C/c2ccccc2OCCN[C@@H](C2CC2)C(=O)NC2(CCCC2)C(=O)N[C@H]1Cc1cccc(Cl)c1  7.00 to 9.00
2  CC[C@H](C)[C@@H]1NCCOc2ccccc2CCCNC(=O)[C@@H](Cc2ccccc2)NC(=O)[C@@H](C)NC1=O  6.00 to 7.00

Field: next compound
Q. Give the measured pEC50 for CC1C(=O)NC(Cc2ccc(F)cc2)C(=O)NCC2CC2c2ccccc2OCCNC(C2CC2)C(=O)N1C (single isomer, unassigned) [389a]
A. 6.00 to 7.00

====

Selectivity listing for selected compounds.
- Study target: UniProt O43193
- Sequence (O43193 whole entry): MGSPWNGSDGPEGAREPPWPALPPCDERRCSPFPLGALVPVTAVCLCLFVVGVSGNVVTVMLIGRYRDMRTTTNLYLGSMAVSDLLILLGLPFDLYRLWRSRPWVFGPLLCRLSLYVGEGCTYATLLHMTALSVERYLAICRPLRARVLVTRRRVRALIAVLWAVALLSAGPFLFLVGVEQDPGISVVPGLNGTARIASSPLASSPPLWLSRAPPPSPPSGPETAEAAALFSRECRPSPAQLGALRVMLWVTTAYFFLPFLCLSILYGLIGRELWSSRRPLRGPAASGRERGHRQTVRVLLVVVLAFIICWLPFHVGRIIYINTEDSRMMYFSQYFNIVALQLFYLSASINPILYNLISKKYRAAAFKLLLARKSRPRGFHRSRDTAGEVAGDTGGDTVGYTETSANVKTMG
- Protocol description: Selectivity for the ghrelin receptor versus the motilin receptor
- Assay type: binding

// worked examples, Selectivity included
> print(dat)
                                   compound  measured.metric   result
1  CC[C@H](C)[C@@H]1NCCOc2ccccc2CCCNC(=O)[C@@H](Cc2ccc3ccccc3c2)NC(=O)[C@@H](C)N(C)C1=O      Selectivity   4900/1
2  CC(C)C[C@@H]1NCCOc2ccccc2C=CCNC(=O)[C@H](Cc2ccccc2Cl)NC(=O)C2(CCCC2)NC1=O (stereo in doubt)      Selectivity   1044/1
3  CCC(C)C1NCCOc2ccccc2CCCNC(=O)C(Cc2ccc(OC)cc2)NC(=O)C(C)N(C)C1=O (stereo not drawn)      Selectivity  >7100/1
4  CC[C@H](C)[C@@H]1NCCOc2ccccc2CCCNC(=O)[C@@H](Cc2ccc(F)cc2)NC(=O)[C@@H](C)N(C)C1=O      Selectivity  >7700/1
5  CC1C(=O)NC(Cc2ccc(F)cc2)C(=O)NCCCc2ncccc2OCCNC(C2CC2)C(=O)N1C (single isomer, unassigned) [306a]      Selectivity    714/1

Q. Give the measured Selectivity for CC1COc2ccccc2CCCNC(=O)C(Cc2ccc(F)cc2)NC(=O)C(C)N(C)C(=O)C(C2CC2)N1 (stereo not drawn)
A. 1700/1

Q. Give the measured Selectivity for CCCC1NCCOc2ccccc2CCCNC(=O)C(Cc2ccccc2)NC(=O)C(C)N(C)C1=O (stereo not drawn)
A. 3012/1

Q. Give the measured Selectivity for CCC(C)C1NCCOc2ccc(F)cc2CCCNC(=O)C(Cc2cccc(Cl)c2)NC(=O)C2(CCCC2)NC1=O (stereo not drawn)
A. 74/1

====

- Study target: human ghrelin receptor (hGHS-R1a) (Homo sapiens)
- Protocol description: Aequorin functional assay (ghrelin receptor), CHO-K1 cells co-expressing Gα16 and aequorin
- Measurement setup: functional (agonist) activity, standard method; TFA salts unless otherwise noted
EC50 listing for selected compounds.

> print(dat)
                                   compound       result
1  CC(C)C[C@@H]1NCCOc2ccccc2C=CCNC(=O)[C@H](Cc2ccc(F)cc2)NC(=O)C2(CCCC2)NC1=O (stereo in doubt)  1 to 100 nM
2  CC(C)CC1NCCOc2ccccc2C=CCNC(=O)C(Cc2cccc(Cl)c2)NC(=O)C2(CCCC2)NC1=O (stereo not shown)  1 to 100 nM
3  CC(C)C[C@@H]1NCCOc2ccccc2/C=C/CNC(=O)C2(CCCC2)NC(=O)C2(CCCC2)NC1=O    > 1000 nM

Field: next compound
Q. Give the measured EC50 for CCCC1NCCOc2ccccc2CCCNC(=O)C(Cc2ccccc2)NC(=O)C(C)N(C)C1=O (stereo not shown)
A. 1 to 100 nM

====

- Study target: human growth hormone secretagogue receptor (hGHS-R1a) (Homo sapiens)
- Construct: purchased PerkinElmer BioSignal #RBHGHSM, lot#1887; host or cells: HEK-293, stably transfected (membranes)
- Protocol description: Competitive radioligand binding assay (ghrelin receptor), [125I]-ghrelin displacement on GHS-R/HEK 293 membranes
- Measurement setup: binding activity at the human ghrelin receptor, [125I]-ghrelin competition, GHS-R/HEK 293 membranes; read-out: Ki
Measured metric: Ki

> print(dat)
                                   compound          result
1  CC[C@H](C)[C@@H]1NCCOc2ccccc2C=CCNC(=O)[C@H](Cc2ccccc2)NC(=O)C2(CCCC2)NC1=O (stereo in doubt) [compound 138]  0.01 to 0.1 µM
2  CCC[C@@H]1NCCOc2ccccc2CCCNC(=O)[C@@H](Cc2c[nH]c3ccccc23)NC(=O)CN(C)C1=O [Compound 6]     0.1 to 1 µM
3  CC(C)C[C@@H]1NCCOc2ccccc2C=CCNC(=O)[C@H](Cc2ccccc2)NC(=O)C2(CCCC2)NC1=O (stereo in doubt) [Compound 8]  0.01 to 0.1 µM

Field: next compound
Q. Give the measured Ki for CC(C)C[C@H]1NCCOc2ccccc2CCCNC(=O)[C@@H](Cc2ccccc2)NC(=O)C2(CCCC2)NC1=O [compound 98]
A. > 10 µM

====

EC50 listing for selected compounds.
- Study target: human ghrelin receptor (hGHS-R1a) (Homo sapiens, UniProt Q92847)
- Protocol description: Aequorin functional assay (ghrelin receptor), CHO-K1 cells co-expressing Gα16 and aequorin
- Measurement setup: functional (agonist) activity, standard method; TFA salts unless otherwise noted

// worked examples, EC50 included
> print(dat)
                                   compound          result
1  CC(C)C[C@@H]1NCCOc2ccccc2CCCNC(=O)[C@@H](Cc2ccccc2)NC(=O)C2(CCCC2)NC1=O [compound 97]  100 to 1000 nM
2  CC(C)C[C@@H]1NCCOc2ccccc2C=CCNC(=O)[C@H](Cc2ccccc2)NC(=O)C2(CCCC2)NC1=O (stereo in doubt) [Compound 8]     1 to 100 nM
3  CC[C@H](C)[C@@H]1NCCOc2ccccc2CCCNC(=O)[C@@H](Cc2ccccc2Cl)NC(=O)[C@@H](C)N(C)C1=O [compound 23]     1 to 100 nM
4  CC1(C)NC(=O)C2(CCCC2)NCCOc2ccccc2C=CCNC(=O)[C@H](Cc2cccc(Cl)c2)NC1=O (stereo in doubt) [compound 334]     1 to 100 nM
5  C[C@@H]1C(=O)N[C@H](Cc2ccccc2)C(=O)NCCCc2ccccc2OCCN2CCCC[C@H]2C(=O)N1C [compound 226]       > 1000 nM

Q. Give the measured EC50 for CC(C)[C@@H]1NCCOc2ccccc2CCCNC(=O)[C@H](Cc2ccccc2)NC(=O)C2(CCCC2)NC1=O [Compound 9]
A. 100 to 1000 nM

Q. Give the measured EC50 for CC(C)C[C@@H]1NCCOc2ccccc2C=CCNC(=O)[C@H](Cc2ccccc2Cl)NC(=O)C2(CCCC2)NC1=O (stereo in doubt) [compound 20]
A. 1 to 100 nM

Q. Give the measured EC50 for CC(C)CC1NCCOc2ccccc2CCCNC(=O)C(Cc2ccccc2)NC(=O)C2(CCCC2)NC1=O (centres unmarked) [compound 113]
A. 100 to 1000 nM

Q. Give the measured EC50 for CC1C(=O)NC(Cc2ccc(Cl)cc2)C(=O)NCCCc2ccccc2OCCNC(C2CC2)C(=O)N1C (centres unmarked) [compound 299]
A. 1 to 100 nM

Q. Give the measured EC50 for CCC[C@@H]1NCCOc2ccccc2CCCNC(=O)[C@@H](Cc2c[nH]c3ccccc23)NC(=O)CN(C)C1=O [Compound 6]
A. 1 to 100 nM

Q. Give the measured EC50 for C[C@@H]1C(=O)N[C@H](Cc2ccccc2)C(=O)NCCCc2ccccc2OCCN[C@@H](C2CC2)C(=O)N1C [compound 17]
A. 1 to 100 nM

Q. Give the measured EC50 for CC1C(=O)NC(Cc2ccc(C(F)(F)F)cc2)C(=O)NCCCc2ccccc2OCCNC(C2CC2)C(=O)N1C (centres unmarked) [compound 322]
A. 1 to 100 nM

Q. Give the measured EC50 for CC[C@H](C)[C@@H]1NCCOc2ccccc2CCCNC(=O)[C@@H](Cc2cccc3ccccc23)NC(=O)[C@@H](C)N(C)C1=O [compound 30]
A. 1 to 100 nM

Q. Give the measured EC50 for CC[C@H](C)[C@@H]1NCCOc2ccccc2CCCNC(=O)[C@@H](Cc2ccc(F)cc2)NC(=O)[C@@H](C)N(C)C1=O [compound 26]
A. 1 to 100 nM
